tested.on: T1, human programmed cell death protein 1 (hPD-1) C93S (aa 24-167) (Homo sapiens, UniProt Q15116, C93S)
T1 construct: made as a fusion with a TEV site and human Fc; the Fc was cut off with TEV protease; source: Expi293F, purified (Protein A, TEV cleavage of Fc, SEC; monomer fractions); not shown: Fc (human), C-terminal, cleaved
assay.overview: SPR; Carterra LSA; Fab from the ammonium sulfate precipitate of the culture supernatant immobilised on a NiHC200M chip; hPD-1 (1-1024 nM) or mPD-1-Fc (4-1024 nM) as analyte, fourfold dilution series, no regeneration; HBS-EP pH 7.4, 25 °C; medians over the spots of a construct, KD = koff/kon
experimental.conditions: one partner purified
Reported koff values are given for each entry in this list.

# binder, koff
measured = [
    ("toripalimab Fab H.F64A (Fab, V domains shown, heavy chain of Sm3 with this change; numbers count from the chain's first residue; as the light chain of Sm3; source: Brevibacillus, culture supernatant (ammonium sulfate precipitate); not shown: 6xHis, C-terminal, kept; 6xHN, C-terminal, kept) VH: QGQLVQSGAEVKKPGASVKVSCKASGYTFTDYEMHWVRQAPIHGLEWIGVIESETGGTAYNQKAKGRVTITADKSTSTAYMELSSLRSEDTAVYYCAREGITTVATTYYWYFDVWGQGTTVTVSS VL: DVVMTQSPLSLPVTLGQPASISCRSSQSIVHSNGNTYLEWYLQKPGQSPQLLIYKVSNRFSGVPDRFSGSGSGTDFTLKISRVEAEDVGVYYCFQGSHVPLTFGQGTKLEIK", "< 1e-05 s⁻¹"),
    ("toripalimab Fab L.V99Q (Fab, V domains shown, as the heavy chain of Sm3; light chain of Sm3 with this change; numbers count from the chain's first residue; source: Brevibacillus, culture supernatant (ammonium sulfate precipitate); not shown: 6xHis, C-terminal, kept; 6xHN, C-terminal, kept) VH: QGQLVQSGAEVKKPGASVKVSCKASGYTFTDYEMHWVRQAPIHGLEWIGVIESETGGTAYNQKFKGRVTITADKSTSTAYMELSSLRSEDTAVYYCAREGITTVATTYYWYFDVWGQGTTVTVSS VL: DVVMTQSPLSLPVTLGQPASISCRSSQSIVHSNGNTYLEWYLQKPGQSPQLLIYKVSNRFSGVPDRFSGSGSGTDFTLKISRVEAEDVGVYYCFQGSHQPLTFGQGTKLEIK", "6.39e-05 s⁻¹"),
    ("toripalimab Fab H.W110A (Fab, V domains shown, heavy chain of Sm3 with this change; numbers count from the chain's first residue; as the light chain of Sm3; source: Brevibacillus, culture supernatant (ammonium sulfate precipitate); not shown: 6xHis, C-terminal, kept; 6xHN, C-terminal, kept) VH: QGQLVQSGAEVKKPGASVKVSCKASGYTFTDYEMHWVRQAPIHGLEWIGVIESETGGTAYNQKFKGRVTITADKSTSTAYMELSSLRSEDTAVYYCAREGITTVATTYYAYFDVWGQGTTVTVSS VL: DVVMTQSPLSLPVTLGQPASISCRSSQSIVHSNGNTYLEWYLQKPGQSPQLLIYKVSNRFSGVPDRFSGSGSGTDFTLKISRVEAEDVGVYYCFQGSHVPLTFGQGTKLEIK", "< 1e-05 s⁻¹"),
    ("toripalimab Fab L.T102Y (Fab, V domains shown, as the heavy chain of Sm3; light chain of Sm3 with this change; numbers count from the chain's first residue; source: Brevibacillus, culture supernatant (ammonium sulfate precipitate); not shown: 6xHis, C-terminal, kept; 6xHN, C-terminal, kept) VH: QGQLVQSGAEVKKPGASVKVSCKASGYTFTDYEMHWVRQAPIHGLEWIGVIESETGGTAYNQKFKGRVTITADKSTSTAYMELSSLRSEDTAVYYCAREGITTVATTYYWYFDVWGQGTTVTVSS VL: DVVMTQSPLSLPVTLGQPASISCRSSQSIVHSNGNTYLEWYLQKPGQSPQLLIYKVSNRFSGVPDRFSGSGSGTDFTLKISRVEAEDVGVYYCFQGSHVPLYFGQGTKLEIK", "< 1e-05 s⁻¹"),
    ("toripalimab Fab H.I51A (Fab, V domains shown, heavy chain of Sm3 with this change; numbers count from the chain's first residue; as the light chain of Sm3; source: Brevibacillus, culture supernatant (ammonium sulfate precipitate); not shown: 6xHis, C-terminal, kept; 6xHN, C-terminal, kept) VH: QGQLVQSGAEVKKPGASVKVSCKASGYTFTDYEMHWVRQAPIHGLEWIGVAESETGGTAYNQKFKGRVTITADKSTSTAYMELSSLRSEDTAVYYCAREGITTVATTYYWYFDVWGQGTTVTVSS VL: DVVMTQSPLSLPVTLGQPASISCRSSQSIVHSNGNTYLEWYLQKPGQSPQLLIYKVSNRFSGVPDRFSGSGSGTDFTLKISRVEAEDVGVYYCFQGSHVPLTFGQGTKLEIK", "1.6e-05 s⁻¹"),
]
